FYI, the data here is from ChEMBL document CHEMBL2203219.

test: in vivo; details: rat, iv
value kind: clearance (mL/min/kg)

a: O=C(NC[C@@H](O)CN1CCC(Oc2ccc(Cl)c(Cl)c2)CC1)c1c[nH]nc1C(F)(F)F
b: Cn1cc(C(=O)NC[C@@H](O)CN2CCC(Oc3ccc(Cl)c(Cl)c3)CC2)c(C(F)(F)F)cc1=O
Exam item: Higher clearance between a and b ? Respond with the label that goes with your answer.
Marked response: a
(a: 22 mL/min/kg, b: 9 mL/min/kg)

----------
assay: in vitro; conditions: rat, hepatocytes
value kind: hepatocyte CLint (µL/min/1e6 cells)

Worked examples, 2 compounds total:
# line notation, unit tag, hepatocyte CLint
measured = [
    ("Cc1cc(Cl)ccc1OC1CCN(C[C@H](O)CNC(=O)c2c[nH]c(=O)c3cc(S(C)(=O)=O)ccc23)CC1", "µL/min/1e6 cells", 7),
    ("Cc1cc(Cl)ccc1OC1CCN(C[C@H](O)CNC(=O)c2c[nH]c(=O)c3c(F)cccc23)CC1", "µL/min/1e6 cells", 7),
]

I: O=C(NC[C@@H](O)CN1CCC(Oc2ccc(Cl)c(Cl)c2)CC1)c1c[nH]c(=O)c2cc(S(=O)(=O)N3CCC3)ccc12
II: O=C(NC[C@@H](O)CN1CCC(Oc2ccc(Cl)c(Cl)c2)CC1)c1c[nH]nc1C(F)(F)F
Exam item: Looking only at measured hepatocyte CLint, which entry is lower, I or II ? Respond with the label that goes with your answer.
Marked response: II

A: O=C(NC[C@@H](O)CN1CCC(Oc2ccc(Cl)c(Cl)c2)CC1)c1c[nH]c(=O)cc1C(F)(F)F
B: CN(C)S(=O)(=O)c1ccc2c(C(=O)NC[C@@H](O)CN3CCC(Oc4ccc(Cl)c(Cl)c4)CC3)c[nH]c(=O)c2c1
C: Cc1c(Cl)ccc(OC2CCN(C[C@H](O)CNC(=O)c3c[nH]nc3C(F)(F)F)CC2)c1Cl
Exam item: # rank by hepatocyte CLint, ascending (min first) Respond with an ordered listing of the labels, as requested.
Marked response: A, C, B
